# Tested on: HT29 colon
# protocol: NCI tumour cell line growth inhibition, 48 h
For each of the compounds below, state its TGI.
One number for each entry, in µM.

Solved cases below.
CC(C)NC(=O)OCc1c(COC(=O)NC(C)C)n(C)c2c1ccc1ccsc12 | 38.5
CN(C)CCN(C)CCC(=O)/C=C/c1ccccc1 | 41.2

Looking up `C=C1C(=O)O[C@@H]2C[C@@H]3[C@]4(CC[C@]5(C)[C@@H]([C@H](C)CC/C=C(\C)C=O)CC[C@@]35C)C[C@]4(CCC(=O)OC)[C@H]12` , I see its TGI listed as 11

* * *

# Tested on: 786-0 renal
# protocol: NCI tumour cell line growth inhibition, 48 h
readout type: TGI

Sample answers from the record:
CN(N=O)C(=O)NNC(=O)N(C)N=O | 95.1 µM
CC(=O)COC(=O)CC(C)=O | > 100 µM
[N-]=[N+]=NCC1OCC(O)C(OCc2ccccc2)C1OCc1ccccc1 (stereo unspecified) | > 100 µM
C=C1C(=O)O[C@@H]2C[C@@H]3[C@]4(CC[C@]5(C)[C@@H]([C@H](C)CC/C=C(\C)C=O)CC[C@@]35C)C[C@]4(CCC(=O)OC)[C@H]12 | 3.23 µM
OC[C@H]1C[C@@H]2Cc3ccccc3N2N1 | > 100 µM

Each compound below has a reported value. Please supply its TGI.
1. C/C(=N/NC(=O)c1ccccc1O)c1ccc(/C(C)=N\NC(=O)c2ccccc2O)c2nc3cc(C)c(C)cc3nc12
2. O=C1C2=Cc3ccccc3OC2(O)Oc2cc(O)cc(O)c21 (stereo unspecified)

Result block:
1. > 100 µM
2. > 100 µM

// each compound listed below needs its TGI
1. COC1CC(OC2C(C)OC(OC3C(C)OC(OC4CCC5(C)C(=CCC6(O)C5CC(OC(=O)c5ccc(O)cc5)C5(C)C(O)(C(C)=O)CCC65O)C4)CC3OC)CC2OC)OC(C)C1O (stereo unspecified) (tested in a mixture with another compound)
2. Fc1cc(-c2csc3n[nH]c(=S)n23)c(Cl)cc1Cl
3. CCn1cc(C2NC(=O)c3ccccc3N2)c2cccc(C)c21 (stereo unspecified)
4. COc1ccc(C2Oc3ccc(O)cc3[C@@H]2C)cc1OC (stereo partly specified)
5. CCN(C(C)=N)c1ccccc1

Result block:
1: 57.1 µM; 2: 42.7 µM; 3: 22.3 µM; 4: > 100 µM; 5: > 100 µM

Lab note: each compound below needs its TGI filled in.
1. COc1ccc(-c2ncnc(-c3ccc(OC)c(OC)c3)n2)cc1OC
2. CCOC(=O)C(C(C)=O)C1CC=CC1 (stereo unspecified)

Result block:
1. > 100 µM
2. > 100 µM

Could you tell me TGI for each of these compounds? They are listed below.
1. Cc1cc(Cl)ccc1Nc1nc(C(F)(F)F)ccc1C(=O)N/N=C/c1cccc(O)c1
2. COc1ccc(/C=C/c2cc(OC)cc(OC)c2)cc1
3. CC(=O)OCC1OC(n2c(C)c(C(C)=O)c(-c3ccc(Cl)cc3)c(C#N)c2=S)C(OC(C)=O)C(OC(C)=O)C1OC(C)=O (stereo unspecified)
4. CN(C)c1ccc2nc3ccc(=[N+](C)C)c([N+](=O)[O-])c-3sc2c1
5. COc1cc(/C=N/NC(=O)c2c(Cl)c(Cl)c(Cl)c(Cl)c2-c2nc3ccccc3[nH]2)ccc1O

Result block:
1. 13.3 µM
2. 59.6 µM
3. > 100 µM
4. 21.4 µM
5. > 100 µM

Give TGI for each listed item.
1. COC(=O)C1CC2c3c(c4ccccc4n3C)CC(C1=O)N2C (stereo unspecified)
2. COc1ccc2c(c1)c(-c1nonc1-c1cn(C)c3ccccc13)cn2C

Result block:
1. > 100 µM
2. > 100 µM

* * *

Please respond with reported TGI for every item in the list.
# Tested on: EKVX NSCLC
# protocol: NCI tumour cell line growth inhibition, 48 h
Where a SMILES comes first, the peptide text is derived from it. Bridges are numbered along the chain shown (N, C = ends). [ ]: non-standard residue; d: D form. The star is where a group is joined. ξ: configuration not given here. PhAc = O=C(Cc1ccccc1)*; ξP = O=C(O)C1CCCN1

CC1=C(C)C2(C#N)C(=O)N3C(=NC(c4ccccc4)NC3c3ccccc3)C2(C#N)C(c2ccccc2)N1 (stereo not drawn) | > 100 µM
O=C(O)C1Cc2c([nH]c3ccccc23)C(CCCCO)N1 (stereo not drawn) | > 100 µM
COc1ccc(-c2ccccc2)c(N/N=C2\CCCNC2=O)c1 | > 100 µM
CC1OC(OC2C(O)COC(OC3C(C)OC(OC4C(OC(=O)[C@]56CCC(C)(C)C[C@@H]5C5=CCC7[C@@]8(C)C[C@H](O)[C@H](OC9OC(CO)C(O)C(O)C9O)[C@@](C)(CO)[C@@H]8CC[C@@]7(C)[C@]5(C)CC6)OCC(O)C4O)C(O)C3OC3OCC(O)C(O)C3O)C2O)C(O)C(O)C1O (stereo partly drawn) | 23.8 µM
O=C(Cc1ccccc1)N[C@@H]1COC(=O)C2CCCN2C(=O)[C@@H]2CCCN2C1=O (stereo partly drawn) (PhAc-[dS]-Pro-[ξP]; ester 1-C) | > 100 µM
CCOC(=O)N1CCC2C(=C(C)C(C)C3=C2C(=O)c2ccccc2C3=O)C1 (stereo not drawn) | > 10 µM
Oc1ccc(-c2nc3ccc(F)cc3s2)cc1 | 25.4 µM
O=C1c2ccccc2C(=O)c2[nH]c(Cc3ccccc3F)nc21 | > 100 µM
CC(C)NC(=O)OCc1c(COC(=O)NC(C)C)n(C)c2c1ccc1ccsc12 | 48.1 µM
O=c1cc(N2CCOCC2)[nH]c(=O)n1-c1cccc(Cl)c1 | > 100 µM

// batch mode: one TGI value per listed entry
1. Nc1c(N2CCCCC2)c(=O)nc2[nH]/c(=C\c3ccco3)c(=O)n12
2. Cc1cc(Cc2c(C)c(C)c(Cc3cc(C)cc(C(C)(C)C)c3O)c(C)c2C)c(O)c(C(C)(C)C)c1
3. Cc1ccc(/C(O)=C/c2nc3ccccc3[nH]c2=O)cc1

Result block:
1. > 100 µM
2. > 100 µM
3. 21.1 µM

Please report TGI for every entry that follows.
1. COc1ccc(Cc2nn(C3OC(COC(C)=O)C(OC(C)=O)C(OC(C)=O)C3OC(C)=O)c(=S)n(-c3ccc(OC)cc3)c2=O)cc1 (stereo not drawn)
2. Cc1cc2nc3[nH]c4c(Cl)cc(Cl)cc4c3nc2cc1C
3. COc1cc(S(=O)(=O)Nc2ccc(-c3csc(N4C(=O)C(C)SC4c4cccc(Oc5ccccc5)c4)n3)cc2)ccc1Cl (stereo not drawn)
4. CN(C)C(=S)NC(=S)Nc1ccc2ccccc2c1
5. COc1cc(O)c2c3c(ccnc13)-c1ccccc1N2

Result block:
1: > 100 µM; 2: > 100 µM; 3: > 100 µM; 4: 51.1 µM; 5: 51.3 µM

Provide the reported TGI of each entry below, same order.
1. COc1ccc(-n2cnc3c(N)nc(N)nc32)cc1
2. O=c1cccccc1NCCCCCCCCNc1cccccc1=O
3. c1ccc(-c2ccc(-c3ccc(C4=NCCN4)cc3)o2)cc1
4. Fc1cc(-c2csc3n[nH]c(=S)n23)c(Cl)cc1Cl
5. COCC1OC(OC2OCC3OC4(OCC(O)(C(C)OC)C5OCOC54)OC3C2OC)C(OC)C(O)C1OC1OC(C)C(OC)C(OC2OC(C)C3OC4(CC(O)C(OC5CC(OC6CC(C)([N+](=O)[O-])C(OC)C(C)O6)C(OC(=O)c6c(C)c(Cl)c(O)c(Cl)c6OC)C(C)O5)C(C)O4)OC3(C)C2O)C1O (stereo not drawn)
6. CCOP(=O)(OCC)/C(=C\n1c(=S)[nH]c2cc(C)ccc21)C(=O)OC

Result block:
1: > 100 µM; 2: > 100 µM; 3: 10.8 µM; 4: 66 µM; 5: > 100 µM; 6: > 100 µM

State recorded TGI for all listed compounds.
1. Oc1cc2ccccc2cc1-c1n[nH]c(=S)n1CCc1ccccc1
2. COCOCCCCCO[Si](C)(C)C(C)(C)C
3. CC1=C(C(=O)OCCc2ccc([N+](=O)[O-])cc2)C(c2cccc([N+](=O)[O-])c2)C(C(=O)OC(C)C)=C(C)N1 (stereo not drawn)
4. CCOC(=O)N1CCC2(CC1)CC(=O)N(Nc1ccccc1)C2=O

Result block:
1. 79.3 µM
2. 46.8 µM
3. > 100 µM
4. > 100 µM

# return TGI for each item in the list
1. Cc1ncc(CSc2ccccc2N)c(CO)c1O
2. CCOC(=O)c1sc2c(sc(=O)n2-c2ccccc2)c1O
3. COc1ccc(C(=O)N2N=C(c3ccc(Br)cc3)CC2c2cn(-c3ccccc3)nc2-c2ccccc2)cc1 (stereo not drawn)
4. COc1ccc(NC(=O)CC(=O)n2nc(-c3ccccc3)c(N=Nc3ccccc3C(=O)O)c2-c2ccccc2)cc1
5. CCc1c(-c2ccccc2)[nH]c2ccccc2c1=O
6. COc1cc2c[n+](C)c3c4cc(OC)c(OC)cc4c(OCCCCCCCCOc4cc5c6cc(OC)c(OC)cc6c[n+](C)c5c5cc(OC)c(OC)cc45)cc3c2cc1OC
7. COc1ccc(NC(=O)CSc2nnc(-c3ccc(N=Cc4ccc(Cl)cc4)cc3)o2)cc1

Result block:
["> 100 µM", "> 100 µM", "> 50 µM", "> 100 µM", "> 100 µM", "> 100 µM", "> 100 µM"]

Provide TGI values for the following items, in order.
1. COc1cccc(C2CC(=O)c3cc(N4CCCC4)ccc3N2)c1 (stereo not drawn)
2. c1ccc(CNc2ccc3[nH]c4cnccc4c3c2)cc1
3. COc1ccc2ccnc(Cc3ccc(OCc4ccccc4)c(OC)c3)c2c1

Result block:
["> 100 µM", "43.4 µM", "42.7 µM"]
